Below: a set of entries, each annotated with reported binding signal.
target: TDP-43 (Homo sapiens, UniProt Q13148 1-414); test: RNA Bind-n-Seq with designed 260-mer pool; 25 mM Tris-HCl, 150 mM KCl, 3 mM MgCl2, BSA (printed 500 mg/mL), 20 units/mL SUPERase IN; pH not stated; 500 nM RNA pool, 1 h, 4 C; TDP-43 5, 50, 500 nM; high values mean tight binding; conditions: protein: recombinant; tags: SBP (GST cleaved off with PreScission; pGEX-GST-SBP)
Sequence (Q13148 whole entry): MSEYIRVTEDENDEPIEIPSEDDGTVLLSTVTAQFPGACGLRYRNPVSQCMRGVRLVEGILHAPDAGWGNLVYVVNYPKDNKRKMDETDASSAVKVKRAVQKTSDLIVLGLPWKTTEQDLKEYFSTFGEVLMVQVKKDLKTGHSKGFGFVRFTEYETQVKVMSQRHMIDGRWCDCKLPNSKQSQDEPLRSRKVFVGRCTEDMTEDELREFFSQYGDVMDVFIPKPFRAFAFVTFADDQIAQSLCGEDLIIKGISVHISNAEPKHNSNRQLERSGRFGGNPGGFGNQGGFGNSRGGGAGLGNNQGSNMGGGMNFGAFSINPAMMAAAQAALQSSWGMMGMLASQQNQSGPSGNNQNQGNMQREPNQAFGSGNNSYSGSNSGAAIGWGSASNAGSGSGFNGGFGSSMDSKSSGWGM
The full ranking holds about 9,900 sequences; the median of “r (bound/input frequency ratio)” is about 0.7, and the highest 2% start at about 6.5. For the sample, the highest values were picked, then their nearest neighbours and some sequences at random.

Binder	binding signal
ENSMUSG00000032194.286|Kank2 (ssRNA) RNA: GGGAGUUCUACAGUCCGACGAUCGCUUCGAUAUCCGCAUGCUAGGAUGGGUGGACGGAUGAGUGUGGGGUGGGUGGAUGGAUAAAUGAGCAAUGGAUGAGAAACUGGGUUGGCUGGUGGGUAGAUGUCAUGAUGGAGUCUUUGCACGUGUAUGAAACAGAAAACCAAACUUCAGGACAGACAGCUGCUGGUGUCUCUGGAUGCUCACAGCCUAGGGCACAUUUGAAAGGUCGUGCUCUGAGCUGAGCCCUGAGUUCCAGCCUUGUAGCCAGCAAGGGAGUUUAUUUAAGGUUCUGGAAGCAUCCUCUUGCGGUCGCACUAGUGUGGAAUUCUCGGGUGUCAAGG	5.11 R (bound/input frequency ratio)
ENSMUSG00000042529.397|Kcnj12 (ssRNA) RNA: GGGAGUUCUACAGUCCGACGAUCGCUUCGAUAUCCGCAUGCUACUGGUUAUGCAGGCUGUACGACGCAGUGUGCAUCAGUCUGAGGAGUCUGGUGGUAAGUAAGCCUCUGCAGCAGACCCUGUCGGAGGCCAUGGGGGCGUGUGUGUGUGUGUGUGUGUGUGUGUGUGUGUGUGUGUGUGUGUGUGUGUGUGAACAUGUGUGAGGGUGUGGAGGUCCCAGGGUGUGUGUAUGUGAAUGUCAGUGGCUUGGGUGCUGUGUGGAGAGAGAGAGAGAGAGAGAGAGAGAGAGAGAGAGAGAGAGAGCUCUUGCGGUCGCACUAGUGUGGAAUUCUCGGGUGUCAAGG	5.15 R (bound/input frequency ratio)
ENSMUSG00000042529.388|Kcnj12 (ssRNA) RNA: GGGAGUUCUACAGUCCGACGAUCGCUUCGAUAUCCGCAUGCUAAGGCUGGAUGCUGGCCACAGACAUGAUCAGUCCGACUUGAGUCCCUGCCCUGCCCUGGUUAUGCAGGCUGUACGACGCAGUGUGCAUCAGUCUGAGGAGUCUGGUGGUAAGUAAGCCUCUGCAGCAGACCCUGUCGGAGGCCAUGGGGGCGUGUGUGUGUGUGUGUGUGUGUGUGUGUGUGUGUGUGUGUGUGUGUGUGUGUGAACAUGUGUGAGGGUGUGGAGGUCCCAGGGUGUGUGUAUGUGAAUGUCAGUGGCUUGCUCUUGCGGUCGCACUAGUGUGGAAUUCUCGGGUGUCAAGG	9.68 R (bound/input frequency ratio)
ENSMUSG00000034801.154|Sos2|134:138;197:201;231:235 (ssRNA) RNA: GGGAGUUCUACAGUCCGACGAUCGCUUCGAUAUCCGCAUGCUAUUGUUUGGUUUUUACAUCUAGGAGACUUAGGAAUAAUACCCACUGUUCUUAAACUCUUUGAGACCAUGUCUUAAAUGUCAGUAUUUGCUGCUGAAGACAAAAACGGAAAAUAGAAUGAAAUAAUAGAAUGCACACACAUUAUUAUUUUGUUAAAAUUAUAAACAGUUCUACAUAACCUGAUUAUAGAAGAAGGGCAACACAUCAUUAAGAUGUGCCUUUUGUUUUGCAGUCAUACGUGUUUAGCUAAUCAUUGUUUAGCUCUCUUGCGGUCGCACUAGUGUGGAAUUCUCGGGUGUCAAGG	0.018 R (bound/input frequency ratio)
ENSMUSG00000042529.387|Kcnj12 (ssRNA) RNA: GGGAGUUCUACAGUCCGACGAUCGCUUCGAUAUCCGCAUGCUACUGGUCAGGCUGGAUGCUGGCCACAGACAUGAUCAGUCCGACUUGAGUCCCUGCCCUGCCCUGGUUAUGCAGGCUGUACGACGCAGUGUGCAUCAGUCUGAGGAGUCUGGUGGUAAGUAAGCCUCUGCAGCAGACCCUGUCGGAGGCCAUGGGGGCGUGUGUGUGUGUGUGUGUGUGUGUGUGUGUGUGUGUGUGUGUGUGUGUGUGUGAACAUGUGUGAGGGUGUGGAGGUCCCAGGGUGUGUGUAUGUGAAUGUCAGUCUCUUGCGGUCGCACUAGUGUGGAAUUCUCGGGUGUCAAGG	12.1 R (bound/input frequency ratio)
ENSMUSG00000043670.176|Diras1 (ssRNA) RNA: GGGAGUUCUACAGUCCGACGAUCGCUUCGAUAUCCGCAUGCUAUGUGUGCGGUGAUAGGACUAGUGGCUGCUGCCCUAGGGCUCUGACAGAAUCUGAGCCUCUUUGCUGGUCAUGUGUACUCUGGAGACUGUCCCCCAUGUCUGCCCUGAGUUACGGAGCCCCUGUGGUAUCUGCGAGACUGUCCAGGAGACUUGAGUGGCUCCUGGGCCUGUGUCCCACCCAGAUGAGGGUGACUUAGAAUUCUGUGUUUAUGUGCCUGUGUGUGUGGAUGGGUGUGUGUCUGUCUUGGGAUGGGGUGUUCUCUCUUGCGGUCGCACUAGUGUGGAAUUCUCGGGUGUCAAGG	6.8 R (bound/input frequency ratio)
ENSMUSG00000043670.180|Diras1 (ssRNA) RNA: GGGAGUUCUACAGUCCGACGAUCGCUUCGAUAUCCGCAUGCUACUGCUGCCCUAGGGCUCUGACAGAAUCUGAGCCUCUUUGCUGGUCAUGUGUACUCUGGAGACUGUCCCCCAUGUCUGCCCUGAGUUACGGAGCCCCUGUGGUAUCUGCGAGACUGUCCAGGAGACUUGAGUGGCUCCUGGGCCUGUGUCCCACCCAGAUGAGGGUGACUUAGAAUUCUGUGUUUAUGUGCCUGUGUGUGUGGAUGGGUGUGUGUCUGUCUUGGGAUGGGGUGUUCUUGCACCACUUUGUGUUCUUAGUGACUCUUGCGGUCGCACUAGUGUGGAAUUCUCGGGUGUCAAGG	6.66 R (bound/input frequency ratio)
